Data origin, for the record: patent US8236956B2

Test system: Hedgehog pathway
Experiment: C3H10T1/2 differentiation assay (alkaline phosphatase), inhibition of the Hedgehog pathway in cell culture
Format: cell-based
Conditions: Mus musculus, C3H 10T1/2; C3H10T1/2 cells, sonic Hedgehog 250 ng/ml, AP activity normalized against total protein; approximate; read-out: Differentiation Assay EC50 (Approximate EC50 for Inhibition)
pEC50: −log10 of the molar value.
readout: pEC50

structure smiles string | reported value
CC1=C2C[C@H]3[C@@H](CCC4=CC(=O)CC[C@@]43C)[C@@H]2CC[C@@]2(C1)O[C@@H]1C[C@H](C)CN(CC(=O)NCCCc3ccccc3)[C@H]1[C@H]2C | 6.30 to 6.70
COCCOCCOCCN1C[C@@H](C)C[C@H]2O[C@]3(CC[C@@H]4C(=C(C)C3)C[C@H]3[C@H]4CCC4=CC(=O)CC[C@@]43C)[C@H](C)[C@@H]21 | > 6.70
CC1=C2C[C@H]3[C@@H](CCC4=CC(=O)CC[C@@]43C)[C@@H]2CC[C@@]2(C1)O[C@@H]1C[C@H](C)CN[C@H]1[C@H]2C | > 6.70
CC1=C2C[C@H]3[C@@H](CCC4=CC(=O)CC[C@@]43C)[C@@H]2CC[C@@]2(C1)O[C@@H]1C[C@H](C)CN(CCOCCOCc3ccccc3)[C@H]1[C@H]2C | 6.30 to 6.70
COCCOCCOCCOCCN1C[C@@H](C)C[C@H]2O[C@]3(CC[C@@H]4C(=C(C)C3)C[C@H]3[C@H]4CCC4=CC(=O)CC[C@@]43C)[C@H](C)[C@@H]21 | > 6.70
